assay: Equilibrium water solubility at pH 3.5; format: physicochemical
ASSAY_ENDPOINT: solubility thermodynamic

Q: Provide only the value of recorded solubility thermodynamic for COCCOCCOCCOCCN1CCN(CC(NC(=O)c2csc(-c3nc4c(cc3O)-c3nc(cs3)C(=O)N[C@@H]([C@@H](C)O)C(=O)N/C(=C(\C)OC)c3nc(cs3)C(=O)N[C@@H]3c5nc(cs5)C(=O)N[C@@H](COC(=O)c5c6c7c(cccc7n5O)COC(=O)[C@@H](O[C@H]5C[C@](C)(O)[C@H](N(C)C)[C@H](C)O5)[C@H]3OC6)c3nc-4cs3)n2)C(N)=O)CC1 (stereo partly specified)
Ans: > 1500 µg/mL

* * *

system: Staphylococcus aureus; experiment: In vitro antibacterial activity against methicillin-sensitive Staphylococcus aureus A15090; type: functional
Documented MIC across a set of compounds
Reply numerically in µg/mL, unit not repeated.

CO/C(C)=C1/NC(=O)[C@H]([C@@H](C)O)NC(=O)c2csc(n2)-c2cc(O)c(-c3nc(C(=O)NC(CN(CCO)CCO)C(N)=O)cs3)nc2-c2csc(n2)[C@@H]2COC(=O)c3c4c5c(cccc5n3O)COC(=O)[C@@H](O[C@H]3C[C@](C)(O)[C@H](N(C)C)[C@H](C)O3)[C@@H](OC4)[C@H](NC(=O)c3csc1n3)c1nc(cs1)C(=O)N2 (some centres undefined) = 0.12

Q: Give a short answer stating reported MIC for CO/C(C)=C1/NC(=O)[C@H]([C@@H](C)O)NC(=O)c2csc(n2)-c2cc(O)c(-c3nc(C(=O)NC(CN4CCN(CCN(C)C)CC4)C(N)=O)cs3)nc2-c2csc(n2)[C@@H]2COC(=O)c3c4c5c(cccc5n3O)COC(=O)[C@@H](O[C@H]3C[C@](C)(O)[C@H](N(C)C)[C@H](C)O3)[C@@H](OC4)[C@H](NC(=O)c3csc1n3)c1nc(cs1)C(=O)N2 (some centres undefined) .
Ans: 0.5

Q: Tell us which MIC value is on record for CNCCNCC(NC(=O)c1csc(-c2nc3c(cc2O)-c2nc(cs2)C(=O)N[C@@H]([C@@H](C)O)C(=O)N/C(=C(\C)OC)c2nc(cs2)C(=O)N[C@@H]2c4nc(cs4)C(=O)N[C@@H](COC(=O)c4c5c6c(cccc6n4O)COC(=O)[C@@H](O[C@H]4C[C@](C)(O)[C@H](N(C)C)[C@H](C)O4)[C@H]2OC5)c2nc-3cs2)n1)C(N)=O (some centres undefined)
Ans: 0.25

Q: Specify reported MIC for the compound shown: CCOC(=O)CN1CCN(CC(NC(=O)c2csc(-c3nc4c(cc3O)-c3nc(cs3)C(=O)N[C@@H]([C@@H](C)O)C(=O)N/C(=C(\C)OC)c3nc(cs3)C(=O)N[C@@H]3c5nc(cs5)C(=O)N[C@@H](COC(=O)c5c6c7c(cccc7n5O)COC(=O)[C@@H](O[C@H]5C[C@](C)(O)[C@H](N(C)C)[C@H](C)O5)[C@H]3OC6)c3nc-4cs3)n2)C(N)=O)CC1 (some centres undefined)
Ans: 0.06

* * *

experiment: Equilibrium water solubility at pH 3.0; format: physicochemical
ASSAY_ENDPOINT: solubility thermodynamic

Recorded results for 6 compounds are shown here.
CNCCN(C)CC(NC(=O)c1csc(-c2nc3c(cc2O)-c2nc(cs2)C(=O)N[C@@H]([C@@H](C)O)C(=O)N/C(=C(\C)OC)c2nc(cs2)C(=O)N[C@@H]2c4nc(cs4)C(=O)N[C@@H](COC(=O)c4c5c6c(cccc6n4O)COC(=O)[C@@H](O[C@H]4C[C@](C)(O)[C@H](N(C)C)[C@H](C)O4)[C@H]2OC5)c2nc-3cs2)n1)C(N)=O (some centres not stated) = > 2800 µg/mL
CO/C(C)=C1/NC(=O)[C@H]([C@@H](C)O)NC(=O)c2csc(n2)-c2cc(O)c(-c3nc(C(=O)NC(CN4CCN(CCN5CCOCC5)CC4)C(N)=O)cs3)nc2-c2csc(n2)[C@@H]2COC(=O)c3c4c5c(cccc5n3O)COC(=O)[C@@H](O[C@H]3C[C@](C)(O)[C@H](N(C)C)[C@H](C)O3)[C@@H](OC4)[C@H](NC(=O)c3csc1n3)c1nc(cs1)C(=O)N2 (some centres not stated) = > 12300 µg/mL
CO/C(C)=C1/NC(=O)[C@H]([C@@H](C)O)NC(=O)c2csc(n2)-c2cc(O)c(-c3nc(C(=O)NC(CN4CCN(c5ccccn5)CC4)C(N)=O)cs3)nc2-c2csc(n2)[C@@H]2COC(=O)c3c4c5c(cccc5n3O)COC(=O)[C@@H](O[C@H]3C[C@](C)(O)[C@H](N(C)C)[C@H](C)O3)[C@@H](OC4)[C@H](NC(=O)c3csc1n3)c1nc(cs1)C(=O)N2 (some centres not stated) = > 2400 µg/mL
CO/C(C)=C1/NC(=O)[C@H]([C@@H](C)O)NC(=O)c2csc(n2)-c2cc(O)c(-c3nc(C(=O)NC(CN(C)CCN4CCCCC4)C(N)=O)cs3)nc2-c2csc(n2)[C@@H]2COC(=O)c3c4c5c(cccc5n3O)COC(=O)[C@@H](O[C@H]3C[C@](C)(O)[C@H](N(C)C)[C@H](C)O3)[C@@H](OC4)[C@H](NC(=O)c3csc1n3)c1nc(cs1)C(=O)N2 (some centres not stated) = > 2700 µg/mL
CO/C(C)=C1/NC(=O)[C@H]([C@@H](C)O)NC(=O)c2csc(n2)-c2cc(O)c(-c3nc(C(=O)NC(CN4CCN(c5cccnc5)CC4)C(N)=O)cs3)nc2-c2csc(n2)[C@@H]2COC(=O)c3c4c5c(cccc5n3O)COC(=O)[C@@H](O[C@H]3C[C@](C)(O)[C@H](N(C)C)[C@H](C)O3)[C@@H](OC4)[C@H](NC(=O)c3csc1n3)c1nc(cs1)C(=O)N2 (some centres not stated) = > 2300 µg/mL
CO/C(C)=C1/NC(=O)[C@H]([C@@H](C)O)NC(=O)c2csc(n2)-c2cc(O)c(-c3nc(C(=O)NC(CN4CCN(c5ccncc5)CC4)C(N)=O)cs3)nc2-c2csc(n2)[C@@H]2COC(=O)c3c4c5c(cccc5n3O)COC(=O)[C@@H](O[C@H]3C[C@](C)(O)[C@H](N(C)C)[C@H](C)O3)[C@@H](OC4)[C@H](NC(=O)c3csc1n3)c1nc(cs1)C(=O)N2 (some centres not stated) = > 12500 µg/mL

From here, focus on the item given below.
Q: Tell me solubility thermodynamic reported for CO/C(C)=C1/NC(=O)[C@H]([C@@H](C)O)NC(=O)c2csc(n2)-c2cc(O)c(-c3nc(C(=O)NC(CN(C)CCCNc4ccncc4)C(N)=O)cs3)nc2-c2csc(n2)[C@@H]2COC(=O)c3c4c5c(cccc5n3O)COC(=O)[C@@H](O[C@H]3C[C@](C)(O)[C@H](N(C)C)[C@H](C)O3)[C@@H](OC4)[C@H](NC(=O)c3csc1n3)c1nc(cs1)C(=O)N2 (some centres not stated)
Ans: > 3000 µg/mL

* * *

tested on: Staphylococcus aureus; assay: In vitro antibacterial activity against methicillin-sensitive Staphylococcus aureus A15090; type: functional
Recorded MIC by entry
Provide the reading as a plain figure in µg/mL.

Please review the following examples before continuing.
CO/C(C)=C1/NC(=O)[C@H]([C@@H](C)O)NC(=O)c2csc(n2)-c2cc(O)c(-c3nc(C(=O)NC(CN4CCC(O)CC4)C(N)=O)cs3)nc2-c2csc(n2)[C@@H]2COC(=O)c3c4c5c(cccc5n3O)COC(=O)[C@@H](O[C@H]3C[C@](C)(O)[C@H](N(C)C)[C@H](C)O3)[C@@H](OC4)[C@H](NC(=O)c3csc1n3)c1nc(cs1)C(=O)N2 (stereo partly drawn) = 0.06
CO/C(C)=C1/NC(=O)[C@H]([C@@H](C)O)NC(=O)c2csc(n2)-c2cc(O)c(-c3nc(C(=O)NC(CN(C)C)C(N)=O)cs3)nc2-c2csc(n2)[C@@H]2COC(=O)c3c4c5c(cccc5n3O)COC(=O)[C@@H](O[C@H]3C[C@](C)(O)[C@H](N(C)C)[C@H](C)O3)[C@@H](OC4)[C@H](NC(=O)c3csc1n3)c1nc(cs1)C(=O)N2 (stereo partly drawn) = 0.06

# context switch: different molecule, same MIC
Q: Report value: MIC, system: Staphylococcus aureus, molecule: CO/C(C)=C1/NC(=O)[C@H]([C@@H](C)O)NC(=O)c2csc(n2)-c2cc(O)c(-c3nc(C(=O)NC(CNCCc4ccccn4)C(N)=O)cs3)nc2-c2csc(n2)C2COC(=O)c3c4c5c(cccc5n3O)COC(=O)[C@@H](O[C@H]3C[C@](C)(O)[C@H](N(C)C)[C@H](C)O3)[C@@H](OC4)[C@H](NC(=O)c3csc1n3)c1nc(cs1)C(=O)N2 (stereo partly drawn)
Ans: 1
